What self-cleavage kobs at 160 uM GlcN6P was measured for each of the following?
B1: glmS ribozyme (parent)
chain: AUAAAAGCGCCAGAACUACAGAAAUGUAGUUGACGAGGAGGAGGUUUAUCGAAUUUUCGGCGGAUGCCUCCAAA

Variants of: B1
Procedure Text: self-cleavage kobs at 160 uM GlcN6P; higher = faster cleavage; RNA array
Protocol Conditions: with glucosamine-6-phosphate
This sample holds only a part of the variants without activity.

Lab note: measured self-cleavage kobs at 160 uM GlcN6P of U54A U56A was 0.000706 s⁻¹

Lab note: measured self-cleavage kobs at 160 uM GlcN6P of A12C G40A C58U was < 1e-05 s⁻¹

Lab note: measured self-cleavage kobs at 160 uM GlcN6P of G41C U46G U57C was < 1e-05 s⁻¹

Lab note: measured self-cleavage kobs at 160 uM GlcN6P of G35A C50G G59C U65G was 4.37e-05 s⁻¹

Lab note: measured self-cleavage kobs at 160 uM GlcN6P of A15C G62A was < 1e-05 s⁻¹

Lab note: measured self-cleavage kobs at 160 uM GlcN6P of A53G A64G was 0.00264 s⁻¹

Lab note: measured self-cleavage kobs at 160 uM GlcN6P of C8A C58U was < 1e-05 s⁻¹

Lab note: measured self-cleavage kobs at 160 uM GlcN6P of G9C G29A G51U was < 1e-05 s⁻¹

Lab note: measured self-cleavage kobs at 160 uM GlcN6P of A14C A36G C58U was < 1e-05 s⁻¹

Lab note: measured self-cleavage kobs at 160 uM GlcN6P of G32A C67U was 7.5e-05 s⁻¹

Lab note: measured self-cleavage kobs at 160 uM GlcN6P of G29U G44C was < 1e-05 s⁻¹

Lab note: measured self-cleavage kobs at 160 uM GlcN6P of A53C U65A was 3.15e-05 s⁻¹

Lab note: measured self-cleavage kobs at 160 uM GlcN6P of C11G A14U G35U C70G was 0.000125 s⁻¹

Lab note: measured self-cleavage kobs at 160 uM GlcN6P of A48C C58U was < 1e-05 s⁻¹

Lab note: measured self-cleavage kobs at 160 uM GlcN6P of G40A C61U C68G C70G C71G was < 1e-05 s⁻¹

Lab note: measured self-cleavage kobs at 160 uM GlcN6P of C11G A15C A33C C34G U55C was < 1e-05 s⁻¹

Lab note: measured self-cleavage kobs at 160 uM GlcN6P of U55G C61A G66C C70A was 0.000108 s⁻¹

Lab note: measured self-cleavage kobs at 160 uM GlcN6P of G35C G40U A64U was < 1e-05 s⁻¹

Lab note: measured self-cleavage kobs at 160 uM GlcN6P of A14G G35C was < 1e-05 s⁻¹

Lab note: measured self-cleavage kobs at 160 uM GlcN6P of A52C U54C was < 1e-05 s⁻¹

Lab note: measured self-cleavage kobs at 160 uM GlcN6P of C8U G35U G62C was < 1e-05 s⁻¹

Lab note: measured self-cleavage kobs at 160 uM GlcN6P of G41A C68U C70U was 0.000155 s⁻¹

Lab note: measured self-cleavage kobs at 160 uM GlcN6P of C10U G44A was < 1e-05 s⁻¹

Lab note: measured self-cleavage kobs at 160 uM GlcN6P of U45A C71A was 0.000518 s⁻¹

Lab note: measured self-cleavage kobs at 160 uM GlcN6P of G9U G40C G51A was < 1e-05 s⁻¹

Lab note: measured self-cleavage kobs at 160 uM GlcN6P of C10A G13U A15G G40U U46G was < 1e-05 s⁻¹

Lab note: measured self-cleavage kobs at 160 uM GlcN6P of U55C A64C was < 1e-05 s⁻¹

Lab note: measured self-cleavage kobs at 160 uM GlcN6P of G32U G38U G43U A53U was < 1e-05 s⁻¹

Lab note: measured self-cleavage kobs at 160 uM GlcN6P of U46G U49A C50A A64G was < 1e-05 s⁻¹

Lab note: measured self-cleavage kobs at 160 uM GlcN6P of A52G U57A was 4.1e-05 s⁻¹

Lab note: measured self-cleavage kobs at 160 uM GlcN6P of C16G U69G was 3.78e-05 s⁻¹

Lab note: measured self-cleavage kobs at 160 uM GlcN6P of A12U G37A was 0.000398 s⁻¹

Lab note: measured self-cleavage kobs at 160 uM GlcN6P of C10A C34A G37A U46C C67G was < 1e-05 s⁻¹
